The origin of these recorded values is PubChem BioAssay (NCATS).

- runDescription: qHTS of pediatric cancer cell lines to identify multiple opportunities for drug repurposing: Primary screen for DAOY cells (AID 1347090); further: nearly all actives have a fitted effect of over 55% in size
- experimentalConditions: DAOY medulloblastoma viability, CellTiter-Glo luminescence, 48 h; series mostly up to 46 µM
Inconclusive results are not listed. The source made the active and inactive calls. The call rests on the fitted dose curve; in most records, active means well fitted cell-killing curve with a large enough effect; inconclusive means small, poorly fitted or top-dose-only effect; inactive means flat fitted curve, though single readings scatter.
quantityKind: activity change, negative = cytotoxic

>>> print(df.to_string())
                                   molecule  measurement
0  CC1=C(/C=C/C(C)=C/C=C/C(C)=C/C(=O)O)C(C)(C)CCC1     inactive
1  COc1ccc2[nH]c(S(=O)Cc3ncc(C)c(OC)c3C)nc2n1 (configuration not stated)     inactive
2                            CC(=O)CCC(=O)O     inactive
3             CN(C)CCCN1c2ccccc2CCc2ccccc21     inactive
4  CSc1ccc2c(c1)C(N1CCN(C)CC1)Cc1ccccc1S2 (configuration not stated)     inactive
5  NS(=O)(=O)c1cc2c(cc1Cl)NC(CSCc1ccccc1)=NS2(=O)=O     inactive
6  CS(=O)(=O)c1ccc([C@@H](O)[C@@H](CF)NC(=O)C(Cl)Cl)cc1     inactive
